# experimentalTarget: human β3 adrenergic receptor (Homo sapiens)
# Construct: Full length β3 AR clones (402 amino acids) containing the last 6 amino acids of hβ3-AR are prepared; expressed in transfected cells; host or cells: CHO (Chinese hamster ovary) cells
# Sequence (P13945 whole entry): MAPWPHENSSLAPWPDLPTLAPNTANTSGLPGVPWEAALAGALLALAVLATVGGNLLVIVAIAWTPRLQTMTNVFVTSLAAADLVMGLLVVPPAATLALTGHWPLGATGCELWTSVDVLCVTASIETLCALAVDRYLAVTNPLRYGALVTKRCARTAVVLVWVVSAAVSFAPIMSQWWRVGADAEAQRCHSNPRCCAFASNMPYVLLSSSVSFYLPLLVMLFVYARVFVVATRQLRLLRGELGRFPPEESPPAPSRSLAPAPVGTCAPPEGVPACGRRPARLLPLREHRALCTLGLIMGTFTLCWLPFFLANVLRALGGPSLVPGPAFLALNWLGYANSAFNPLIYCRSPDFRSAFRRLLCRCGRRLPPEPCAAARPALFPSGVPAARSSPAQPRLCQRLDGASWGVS
# measurementProtocol: cAMP (SPA) response in CHO cells transfected with human β3 adrenergic receptor
# Type: cell-based
# Design: key: fraction of maximal isoproterenol (10^-5 M) response
# conditionsUsed: maximal response relative to maximal response of isoproterenol at 10^-5 M

# compound, IA(β3)
measured = [
    ("COC(=O)c1sccc1S(=O)(=O)Nc1ccc(N2CCC(NC[C@H](O)c3ccc(O)c(NS(C)(=O)=O)c3)CC2)cc1 [Example 320]", 0.87),
    ("O=[N+]([O-])c1ccc(Oc2c(Cl)cc(S(=O)(=O)Nc3ccc(N4CCC(NCC(O)c5cccc(O)c5)CC4)cc3)cc2Cl)c(Cl)c1 (stereo not drawn) [Example 354]", 0.73),
    ("O=C1NC(=O)C(=Cc2ccc(N3CCC(NC[C@H](O)COc4cccc5[nH]c(=O)[nH]c45)CC3)c(F)c2)S1 [Example 69]", 1),
]
